Target: human orexin 2 receptor (Homo sapiens (Human))
Sequence (O43614 whole entry): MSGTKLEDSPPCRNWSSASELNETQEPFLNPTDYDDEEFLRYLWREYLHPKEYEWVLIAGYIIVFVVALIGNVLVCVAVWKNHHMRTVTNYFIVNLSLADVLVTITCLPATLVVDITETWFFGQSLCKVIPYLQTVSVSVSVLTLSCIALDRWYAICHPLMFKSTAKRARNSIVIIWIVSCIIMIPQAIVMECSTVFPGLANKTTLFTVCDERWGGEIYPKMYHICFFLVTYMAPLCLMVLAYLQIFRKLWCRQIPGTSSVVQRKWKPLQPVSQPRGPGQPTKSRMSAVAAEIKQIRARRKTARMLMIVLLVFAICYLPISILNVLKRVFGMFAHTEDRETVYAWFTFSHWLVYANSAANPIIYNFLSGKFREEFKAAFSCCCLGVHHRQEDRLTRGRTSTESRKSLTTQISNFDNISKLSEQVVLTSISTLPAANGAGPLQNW
Experiment: Human orexin 2 receptor radioligand binding ([3H]-EMPA competition, HEK293 membranes)
Details: human orexin 2 receptor; Table 2, averages from between 2-20 runs; read-out: hOX2 Ki
Class definitions on Ki: bottom range = under 800 nM, center range = from 800 nM up to 2000 nM, top range = 2000 nM and over

Query block: Please let me know in which category the item O=C(c1cccc(F)c1-n1nccn1)N1C2CCC1C(Oc1ccc(C(F)(F)F)nc1)C2 (racemic) belongs.
Result block: top range

Query block: Please let me know in which category the item "O=C(c1ccccc1-c1ncccn1)N1[C@@H]2CC[C@H]1[C@H](Nc1ncc(C(F)(F)F)cn1)C2" belongs.
Result block: center range

Query block: Please let me know in which category the item "O=C(c1c(F)cccc1-c1ncccn1)N1[C@@H]2CC[C@H]1[C@H](Nc1ncc(C(F)(F)F)cn1)C2" belongs.
Result block: top range

Query block: Please let me know in which category the item O=C(c1ccccc1-c1ncccn1)N1C2CCC1C(Oc1ccc(C(F)(F)F)cn1)C2 (racemic) belongs.
Result block: top range

Query block: Please let me know in which category the item Cc1cnc(-n2nccn2)c(C(=O)N2C3CCC2C(Oc2ccc(C(F)(F)F)cn2)C3)c1 (racemic) belongs.
Result block: top range

Query block: Please let me know in which category the item "O=C(c1c(F)cccc1-n1nccn1)N1[C@@H]2CC[C@H]1[C@H](Nc1ccc(C(F)(F)F)cn1)C2" belongs.
Result block: bottom range

Query block: Please let me know in which category the item "COc1ccc(C(=O)N2[C@@H]3CC[C@H]2[C@H](Nc2cnc(C(F)(F)F)cn2)C3)c(Cl)n1" belongs.
Result block: top range

Query block: Please let me know in which category the item "O=C(c1ccccc1-c1ccccc1)N1[C@@H]2CC[C@H]1[C@H](Nc1cnc(C(F)(F)F)cn1)C2" belongs.
Result block: bottom range

Query block: Please let me know in which category the item "O=C(c1cccc(F)c1-n1nccn1)N1[C@@H]2CC[C@H]1[C@H](Nc1ccc(Br)cn1)C2" belongs.
Result block: center range

Query block: Please let me know in which category the item Cc1cccc(C(=O)N2C3CCC2C(Nc2cnc(Br)cn2)C3)c1-c1ncco1 (stereo not drawn) belongs.
Result block: bottom range

Query block: Please let me know in which category the item "O=C(c1cccc(F)c1-c1ncccn1)N1[C@@H]2CC[C@H]1[C@H](Nc1ncc(Br)cn1)C2" belongs.
Result block: center range
